# credit: patent US20220025029A1

pKd values, listed per item
Tgt: T1, natural Fel d1 (Indoor Biotech, #NA-FD1-2) (cat, UniProt P30438 23-92; P30440 18-109)
T1 construct: Bought natural heterodimeric glycoprotein, chains linked by disulfide bonds; also called nFel d1; nFel d 1
Assay procedure: SPR (Biacore), mAb captured, natural Fel d1 injected, 25 C;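 note: rate constants obtained by fitting association and dissociation phases to a one-to-one binding model, with Kd and half-life derived from those rate constants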
Lab note — pKd values are minus log10 of concentrations in M.

Some entries whose results are on file:
Field request: pKd | item: H4H1232N (antibody, human IgG4, V domains shown, human IgG4 Fc (H4H prefix)) VH: EVQLVESGGGLVKPGGSLRLSCAASGFTFRNYNINWVRQAPGKGLEWVSLISGSSSYIYYADSVKGRFTVSRDNAKNSLYLQMNSLRAEDTAVYYCARRTLSYYVMDVWGQGTTVTVSS VL: DIQVTQSPSPLSASVGDRVTITCRASQGISNYLAWYQQKPGRVPQLLIYAASTLQSGVPSRFSGSGSGTDFTLTISSLQPEDVATYYCQKYNSAPYTFGQGTKLEIK 9.68

Field request: pKd | item: H4H1616N (antibody, human IgG4, V domains shown, human IgG4 Fc (H4H prefix)) VH: EVELLESGGGLVQPGGSLRLSCAASGFTFSSYAMSWVRQAPGKGLEWVSSISGRVGSTHFADSVKGRFTFSRDNSKNTLYLQLSSLRAEDTAVYYCARSRGAAYFDYWGQGTLVTVSS VL: DIQMTQSPSSLSASVGDRVTITCQANQDISNFLNWYQQRPGKAPNLLIYAASNLETGVPSRFSGSGSGTDFTFTISSLQPEDIATYYCQHYDNFPFTFGPGTKVDIK 8.29

Others:
Field request: pKd | item: H4H2606B (antibody, human IgG4, V domains shown, human IgG4 Fc (H4H prefix)) VH: EVQLVESGGGLVKPGGSLRLSCAASGFTFSDYYMNWIRQAPGKGLEWVSYISSSGNSIYYADSVKGRFTISRDNAKNSLFLQMSSLRAEDTAVYYCARDGRYNDRRRGYYWGQGTLVTVSS VL: EIVMTQSPDFQSVTPKEKVTITCRASQSIGSSLHWYQQKPDQSPKLLIKYASQSFSGVPSRFSGSGSGTDFTLTINSLEAEDAATYYCLQSSSLRTFGQGTKVEIKR 9.12

Field request: pKd | item: H4H2645P (antibody, human IgG4, V domains shown, human IgG4 Fc (H4H prefix)) VH: EVQLVESGGGLVQPGGSLRLSCAASGFTFSTYAMHWVRQAPGKGLEWVSSISGRGRNSDHADSVKGRFTISRDNSKNTLYLQMNSLRAEDTAVYYCARTEYFHHWGQGTLVTVSS VL: DIQMTQSPSSLSASVGDRITITCRASQDINNYLAWFQQKPGKAPKSLIYGASSLQSGVPSKFSGSGSGTDFTLTISSLQPEDFATYYCQQYSSYPFTFGPGTKVDIK 9.34

Field request: pKd | item: H4H2797P (antibody, human IgG4, V domains shown, human IgG4 Fc (H4H prefix)) VH: QVQLVESGGGVVLPGRSLRLSCAASGFTFSSYLMYWVRQAPGKGLEWVAVIWYDGSNKFYGDSVKGRFTISRDNSKNTLYLQMNSLRAEDTAVYYCARDNGNSGYEDSWNAFDIWGQGTMVTVSS VL: DIQMTQSPSSLSASVGDRVTITCRASQDIYNYLAWFQQKPGKAPKSLIYAASSLQTGVPSQFSGSGSGTDFTLTISSLQPEDFATYYCQQYNNYPFTFGPGTKVDIK 7.45
